Form field: IC50 (one value per entry).
- Target or test system: recombinant human ACC2 (Homo sapiens, UniProt O00763)
- Construct: a full length Cytomax clone of ACC2 was purchased from Cambridge Bioscience Limited; made in house; host or cells: CHO cells (tetracycline induction, pcDNA5 FRT TO-TOPO); purified on a Softlink Soft Release Avidin column
- Sequence (O00763 whole entry): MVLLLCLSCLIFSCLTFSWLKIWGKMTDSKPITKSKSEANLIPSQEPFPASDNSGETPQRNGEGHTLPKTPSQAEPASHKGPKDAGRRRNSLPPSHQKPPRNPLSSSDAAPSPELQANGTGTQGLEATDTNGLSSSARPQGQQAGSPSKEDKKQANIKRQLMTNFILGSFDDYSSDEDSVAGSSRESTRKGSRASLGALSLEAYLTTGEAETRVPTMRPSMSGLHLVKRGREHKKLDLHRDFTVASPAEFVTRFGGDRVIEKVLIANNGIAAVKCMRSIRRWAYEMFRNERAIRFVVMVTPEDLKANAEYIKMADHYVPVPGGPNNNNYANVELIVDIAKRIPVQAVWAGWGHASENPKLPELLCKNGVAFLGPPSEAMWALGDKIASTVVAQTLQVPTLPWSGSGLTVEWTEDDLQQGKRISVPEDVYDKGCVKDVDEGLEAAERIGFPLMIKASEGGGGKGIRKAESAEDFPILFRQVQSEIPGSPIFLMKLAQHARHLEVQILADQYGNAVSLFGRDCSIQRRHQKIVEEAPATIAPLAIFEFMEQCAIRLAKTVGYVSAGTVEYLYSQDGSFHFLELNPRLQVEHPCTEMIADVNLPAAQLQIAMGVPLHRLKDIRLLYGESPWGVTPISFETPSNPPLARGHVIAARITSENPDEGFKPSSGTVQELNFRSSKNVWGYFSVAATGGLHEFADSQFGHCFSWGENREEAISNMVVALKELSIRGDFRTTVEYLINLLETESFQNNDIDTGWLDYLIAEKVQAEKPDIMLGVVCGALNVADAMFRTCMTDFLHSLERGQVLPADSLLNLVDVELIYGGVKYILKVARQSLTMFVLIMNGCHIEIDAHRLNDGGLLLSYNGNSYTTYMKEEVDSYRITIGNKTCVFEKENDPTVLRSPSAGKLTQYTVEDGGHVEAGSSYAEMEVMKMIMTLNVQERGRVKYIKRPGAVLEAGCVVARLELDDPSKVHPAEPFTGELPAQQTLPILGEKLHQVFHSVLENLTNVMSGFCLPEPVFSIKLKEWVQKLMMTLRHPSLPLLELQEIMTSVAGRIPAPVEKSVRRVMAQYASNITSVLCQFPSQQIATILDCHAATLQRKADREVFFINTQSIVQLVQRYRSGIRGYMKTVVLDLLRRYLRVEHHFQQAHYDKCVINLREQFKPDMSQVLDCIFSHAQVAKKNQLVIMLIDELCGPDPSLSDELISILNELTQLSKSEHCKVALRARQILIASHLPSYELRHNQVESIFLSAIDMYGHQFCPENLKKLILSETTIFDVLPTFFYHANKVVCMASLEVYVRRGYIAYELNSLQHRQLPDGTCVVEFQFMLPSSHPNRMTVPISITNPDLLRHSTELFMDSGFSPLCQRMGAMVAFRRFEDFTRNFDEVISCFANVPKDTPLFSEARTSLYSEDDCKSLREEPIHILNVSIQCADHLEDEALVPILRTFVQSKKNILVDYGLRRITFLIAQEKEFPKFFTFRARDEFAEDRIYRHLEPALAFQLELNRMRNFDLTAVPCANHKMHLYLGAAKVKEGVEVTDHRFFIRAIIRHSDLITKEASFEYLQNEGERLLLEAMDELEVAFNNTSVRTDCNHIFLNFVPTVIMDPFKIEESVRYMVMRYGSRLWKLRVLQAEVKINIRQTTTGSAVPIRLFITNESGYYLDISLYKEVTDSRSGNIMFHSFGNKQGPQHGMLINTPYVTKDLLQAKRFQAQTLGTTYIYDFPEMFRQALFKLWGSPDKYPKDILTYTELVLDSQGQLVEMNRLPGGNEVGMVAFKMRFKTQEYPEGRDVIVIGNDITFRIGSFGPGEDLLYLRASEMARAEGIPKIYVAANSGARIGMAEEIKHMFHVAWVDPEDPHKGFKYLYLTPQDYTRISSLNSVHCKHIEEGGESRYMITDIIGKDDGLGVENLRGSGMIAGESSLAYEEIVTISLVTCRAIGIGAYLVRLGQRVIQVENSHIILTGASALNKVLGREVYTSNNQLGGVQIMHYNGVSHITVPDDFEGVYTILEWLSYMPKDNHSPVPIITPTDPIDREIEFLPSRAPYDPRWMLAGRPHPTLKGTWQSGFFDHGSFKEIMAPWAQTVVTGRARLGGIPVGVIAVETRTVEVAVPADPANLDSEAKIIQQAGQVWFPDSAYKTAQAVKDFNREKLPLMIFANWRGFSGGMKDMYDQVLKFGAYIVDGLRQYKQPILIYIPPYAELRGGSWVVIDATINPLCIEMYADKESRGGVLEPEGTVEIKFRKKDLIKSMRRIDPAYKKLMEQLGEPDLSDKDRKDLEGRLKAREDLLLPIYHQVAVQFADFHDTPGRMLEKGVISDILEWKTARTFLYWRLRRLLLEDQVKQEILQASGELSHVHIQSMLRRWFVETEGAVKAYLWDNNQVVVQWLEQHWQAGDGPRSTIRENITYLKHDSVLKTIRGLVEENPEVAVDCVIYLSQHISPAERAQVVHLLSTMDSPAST
- Procedure details: Measurement of human ACC2 inhibition (recombinant hACC2 Transcreener ADP detection FP assay)
- Format: biochemical
- Condition details: recombinant hACC2 transcreener assay; read-out: rhACC2 IC50

Tell me its IC50 given Cc1c2c(nn1C)C(=O)CC1(CCN(C(=O)c3ccc4c(cnn4C)c3)CC1)O2 as the entry.
> 3000 nM

Tell me its IC50 given CCn1nc2c(c1C)OC1(CCN(C(=O)c3cc(C)c4c(c3)ncn4C)CC1)CC2=O as the entry.
87 nM

Tell me its IC50 given Cc1n[nH]c2ccc(C(=O)N3CCC4(CC3)CC(=O)c3nn(C(C)C)cc3O4)cc12 as the entry.
10 nM

Tell me its IC50 given CCn1nc2c(c1C)OC1(CCN(C(=O)c3ccc4[nH]nc(C)c4c3)CC1)CC2=O as the entry.
36 nM

Tell me its IC50 given Cn1cnc2ccc(C(=O)N3CCC4(CC3)CC(=O)c3nn(C(C)(C)C)cc3O4)cc21 as the entry.
21 nM

Tell me its IC50 given CCc1nn(C)c2cc(C(=O)N3CCC4(CC3)CC(=O)c3nn(C(C)C)cc3O4)ccc12 as the entry.
14 nM

Tell me its IC50 given Cc1cc(C(=O)N2CCC3(CC2)CC(=O)c2nn(Cc4ccccc4)c(C)c2O3)cc2cn[nH]c12 as the entry.
487 nM

Tell me its IC50 given CCn1cc2c(n1)C(=O)CC1(CCN(C(=O)c3ccc4[nH]ncc4c3)CC1)O2 as the entry.
197 nM

* * *

- Target or test system: recombinant human ACC2 (Homo sapiens, UniProt O00763)
- Construct: a full length Cytomax clone of ACC2 was purchased from Cambridge Bioscience Limited; made in house; host or cells: CHO cells (tetracycline induction, pcDNA5 FRT TO-TOPO); purified on a Softlink Soft Release Avidin column
- Procedure details: Measurement of human ACC2 inhibition (recombinant hACC2 Transcreener ADP detection FP assay)
- Assay type: biochemical
- Condition details: recombinant hACC2 transcreener assay; read-out: rhACC2 IC50
Form field: pIC50 (one value per entry).
For clarity, pIC50 is expressed as the negative log10 of concentration in mol/L.

INSERT INTO results (compound, numeric_result) VALUES
  ('Cc1n[nH]c2ccc(C(=O)N3CCC4(CC3)CC(=O)c3nn(C(C)(C)C)cc3O4)cc12', 8.52);

Tell me its pIC50 given CCn1nc2c(c1C)OC1(CCN(C(=O)c3cc(C)c4ncn(C)c4c3)CC1)CC2=O as the entry.
7.31

Tell me its pIC50 given CCn1nc2c(c1C)OC1(CCN(C(=O)c3cc(OC)c4oc(C)nc4c3)CC1)CC2=O as the entry.
6.75

Tell me its pIC50 given CC(C)(C)n1cc2c(n1)C(=O)CC1(CCN(C(=O)c3cc(Cl)c4cn[nH]c4c3)CC1)O2 as the entry.
8.15

Tell me its pIC50 given CCOc1cc(C(=O)N2CCC3(CC2)CC(=O)c2nn(C(C)C)cc2O3)cc2cn[nH]c12 as the entry.
7.85

Tell me its pIC50 given CC(C)n1cc2c(n1)C(=O)CC1(CCN(C(=O)c3ccc4cn(C)nc4c3)CC1)O2 [5.002] as the entry.
6.83

Tell me its pIC50 given CCn1cc2c(n1)C(=O)CC1(CCN(C(=O)c3cc(C)c4nc(C)[nH]c4c3)CC1)O2 as the entry.
6.95

Tell me its pIC50 given Cc1cc(C(=O)N2CCC3(CC2)CC(=O)c2nn(C(C)C)cc2O3)cc2ncn(C)c12 as the entry.
7.23

* * *

- Target or test system: recombinant human ACC2 (Homo sapiens)
- Construct: a full length Cytomax clone of ACC2 was purchased from Cambridge Bioscience Limited; made in house; host or cells: CHO cells (tetracycline induction, pcDNA5 FRT TO-TOPO); purified on a Softlink Soft Release Avidin column
- Procedure details: Measurement of human ACC2 inhibition (recombinant hACC2 Transcreener ADP detection FP assay)
- Type: biochemical
- Condition details: recombinant hACC2 transcreener assay; read-out: rhACC2 IC50
Property measured: pIC50
For clarity, pIC50 is expressed as the negative log10 of concentration in mol/L.

Guide cases for pIC50, answers given:
INSERT INTO measurements (mol_smiles, property_measured, numeric_result) VALUES
  ('COc1ccc2cc(C(=O)N3CCC4(CC3)CC(=O)c3nn(C(C)(C)C)cc3O4)ccc2c1', 'pIC50', 7.42),
  ('CCn1nc2c(c1C)OC1(CCN(C(=O)c3cc(C)c4[nH]ncc4c3)CC1)CC2=O', 'pIC50', 7.51),
  ('CC(C)(C)n1cc2c(n1)C(=O)CC1(CCN(C(=O)c3cc(Cl)c4[nH]ncc4c3)CC1)O2', 'pIC50', 8.10),
  ('CCn1nc2c(c1C)OC1(CCN(C(=O)c3ccc4cn[nH]c4c3OC)CC1)CC2=O', 'pIC50', 7.15),
  ('COc1cc(C(=O)N2CCC3(CC2)CC(=O)c2nn(C4CCC4)c(C)c2O3)cc2cn[nH]c12', 'pIC50', 7.70);

Give pIC50; test system recombinant human ACC2 (Homo sapiens); compound Cc1n[nH]c2c(C)cc(C(=O)N3CCC4(CC3)CC(=O)c3nn(C(C)(C)C)c(C)c3O4)cc12
7.82

Give pIC50; test system recombinant human ACC2 (Homo sapiens); compound CCOc1cc(C(=O)N2CCC3(CC2)CC(=O)c2nn(CC)cc2O3)cc2c(C)n[nH]c12
7.92

* * *

- Target or test system: recombinant human ACC2 (Homo sapiens, UniProt O00763)
- Construct: a full length Cytomax clone of ACC2 was purchased from Cambridge Bioscience Limited; made in house; host or cells: CHO cells (tetracycline induction, pcDNA5 FRT TO-TOPO); purified on a Softlink Soft Release Avidin column
- Procedure details: Measurement of human ACC2 inhibition (recombinant hACC2 Transcreener ADP detection FP assay)
- Assay type: biochemical
- Condition details: recombinant hACC2 transcreener assay; read-out: rhACC2 IC50
- Protocol: [3] Measurement of human ACC2 inhibition. Human ACC2 inhibition was measured using purified recombinant human ACC2 (hrACC2). […] The ACC2 was expressed in CHO cells by tetracycline induction and harvested in 5 liters of DMEM/F12 with glutamine, biotin, hygromycin and blasticidin with 1 μg/mL tetracycline (Invitrogen, Carlsbad, Calif.). The conditioned medium containing ACC2 was then applied to a Softlink Soft Release Avidin column (Promega, Madison, Wis.) and eluted with 5 mM biotin. […]
Property measured: IC50 (µM)
The reply should contain only the number, in µM.

Guide cases for IC50, answers given:
INSERT INTO assay_data (compound, scale_unit, numeric_result) VALUES
  ('CCn1nc2c(c1C)OC1(CCN(C(=O)c3ccc4c(c3)N(C)C(=O)CC4)CC1)CC2=O', 'µM', 0.299),
  ('CCC(C)n1cc2c(n1)C(=O)CC1(CCN(C(=O)c3ccc4[nH]nc(C)c4c3)CC1)O2 (centres unmarked)', 'µM', 0.019),
  ('CCn1nc2c(c1C)OC1(CCN(C(=O)c3ccc4ccn(C)c4c3)CC1)CC2=O', 'µM', 0.033),
  ('Cc1n[nH]c2c(C)cc(C(=O)N3CCC4(CC3)CC(=O)c3nn(C)c(C)c3O4)cc12', 'µM', 0.117),
  ('Cc1n[nH]c2c(C)cc(C(=O)N3CCC4(CC3)CC(=O)c3nn(CC(C)C)cc3O4)cc12', 'µM', 0.01),
  ('Cc1n[nH]c2c(C)cc(C(=O)N3CCC4(CC3)CC(=O)c3nn(C5CCC5)c(C)c3O4)cc12', 'µM', 0.003),
  ('CCn1nc2c(c1C)OC1(CCN(C(=O)c3cc(C)c4[nH]cc(C)c4c3)CC1)CC2=O', 'µM', 0.029),
  ('Cc1n[nH]c2c(C)cc(C(=O)N3CCC4(CC3)CC(=O)c3nn(C)cc3O4)cc12', 'µM', 0.08),
  ('CC(C)(C)n1cc2c(n1)C(=O)CC1(CCN(C(=O)c3ccc4sncc4c3)CC1)O2', 'µM', 0.023),
  ('Cc1cc(C(=O)N2CCC3(CC2)CC(=O)c2nn(C4CCCC4)cc2O3)cc2cn[nH]c12', 'µM', 0.009);

Tell me its IC50 given CC(C)(C)n1cc2c(n1)C(=O)CC1(CCN(C(=O)c3ccc4oncc4c3)CC1)O2 as the entry.
0.518

Tell me its IC50 given Cc1nc2ccc(C(=O)N3CCC4(CC3)CC(=O)c3nn(C(C)(C)C)cc3O4)cc2n1C as the entry.
0.042

Tell me its IC50 given Cc1cc(C(=O)N2CCC3(CC2)CC(=O)c2nn(C4CCOC4)c(C)c2O3)cc2cn[nH]c12 (centres unmarked) as the entry.
0.046

Tell me its IC50 given COc1cc(C(=O)N2CCC3(CC2)CC(=O)c2nn(C(C)(C)C)cc2O3)cc2nc(C)oc12 as the entry.
0.029

Tell me its IC50 given Cc1cc(C(=O)N2CCC3(CC2)CC(=O)c2nn(C(C)(C)C)cc2O3)cc2ncn(C)c12 as the entry.
0.036

Tell me its IC50 given Cc1cc(C(=O)N2CCC3(CC2)CC(=O)c2nn(C(C)(C)C)cc2O3)cc2ccc(=O)[nH]c12 as the entry.
0.011

Tell me its IC50 given CCc1n[nH]c2ccc(C(=O)N3CCC4(CC3)CC(=O)c3nn(C(C)(C)C)cc3O4)cc12 as the entry.
0.012

Provenance of the data: patent US8318762B2
